Experiment summary: growth modulation of vineyard yeast isolate – strain RM11-1a, OD600, basal, 24 h, primary screen (AID 1177);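 note: cultures grown under basal conditions with no added stressor; test concentration not given here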
Test parameters: S. cerevisiae RM11-1a growth, OD600, 24 h; higher = more signal, called active from +8 up or from −8 down
Calls of active or inactive are those of the source.
Measured endpoint: z-score

[ask] GET /values?readout=z-score&item= CC1CC/C=C\[C@H]2OC34C=CCN(c5ccc6ccccc6c5)C(=O)[C@H]3N(C(C)CO)C(=O)[C@@H]4C2C(=O)O1 (stereo not given in full)
[reply] 0.853 (inactive)

----------
Study target: Neurogenic locus notch homolog protein 2 (Homo sapiens)
Experiment summary: small molecules binding Notch2 protein – biochemical, small-molecule microarray, 635 nm fluorescence, stem cell growth factors, primary screen (AID 1073)
Test parameters: higher = more signal
Measured endpoint: composite z-score
Respond numerically, and do not add a unit to the figure.

Please review the following examples before continuing.
>  <Compound>
COc1ccc([Si](C)(C)[C@H]2[C@H](CCO)O[C@@]3(C(=O)N(Cc4cccc(N5C(=O)c6ccccc6Oc6ccccc65)c4)c4ccccc43)[C@@H]2C)cc1

>  <Observed measurement>
0.139

$$$$
>  <Compound>
O=C1[C@H]2C=C(I)[C@H](C[C@@H]2c2ccccc2)[C@@]12CO2

>  <Observed measurement>
0.0878

$$$$
>  <Compound>
C[N+](C)(C)CCCCNC(=O)[C@H]1C[C@H]2C(=O)N[C@@H](Cc3ccccc3)C(=O)N2[C@H]1c1cccc(OCCO)c1

>  <Observed measurement>
0.641

$$$$
>  <Compound>
COc1ccc(C(O)C2C=CC3C(=O)NC(=O)C3N2Nc2ccc(Cl)cc2Cl)c2ccccc12 (stereo not given)

>  <Observed measurement>
1.02

$$$$
>  <Compound>
COC(=O)[C@@]1(Cc2ccc(OC)cc2)[C@H]2c3cc(C(=O)N4CCCC4)n(CCn4cc([N+](=O)[O-])nc4C)c3C[C@H]2CN1C(=O)c1ccccc1

>  <Observed measurement>
1.5

$$$$

[ask] Sample Cc1ccc(N2C(=O)c3ccccc3[C@](C)(C(=O)NCCCN(C)C)[C@@H]2c2ccc(CO)cc2)nc1 — what was its composite z-score?
[reply] -0.676

[ask] Consider the compound shown here: O=C1C[C@@](C(=O)O)(c2ccc([N+](=O)[O-])cc2)[C@@H](c2ccc(CO)cc2)N1C1CCCCC1 What is its recorded composite z-score?
[reply] 1.46

[ask] Dear colleague, I am looking for the recorded composite z-score of the following compound: COC(=O)C1(Cc2ccccc2)C=C2C(=C(C)C(=O)C2C)CN1 (stereo not given)
[reply] 1.01

[ask] For the compound CCCN1C(=O)[C@@]2(c3ccc([N+](=O)[O-])cc3)CC(=O)N(CC34CC5CC(CC(C5)C3)C4)[C@@H]2c2ccc(CO)cc21 , what composite z-score is on record?
[reply] -0.421

[ask] Which composite z-score is reported for this compound? COc1cc(C(O)C2C=CC3C(=O)N(c4ccccc4)C(=O)C3N2Nc2ccccc2)cc(OC)c1OC (stereo not given)
[reply] 1.68
